- studySystem: VEGFR2 kinase (Homo sapiens)
pIC50: −log10 of the molar value.
Where pIC50 equals or exceeds 8, the correct label is rule met; where it does not, the label is rule not met.

NC(=O)/C(=C1\Nc2ccc(C(=O)NC3CCNCC3)cc2S1)c1nccc(C(F)(F)F)n1 [Compound 71A]	rule met
NC(=O)/C(=C1\Nc2ccc(I)cc2S1)c1nccc(C(F)(F)F)n1 [Compound 25A]	rule not met
CC(C)(C)c1cc(C(F)(F)F)nc(C(C(N)=O)=C2Nc3ccccc3S2)n1 (single isomer, unassigned) [Compound 7A]	rule not met
Cc1cc(C(=O)O)nc(/C(C(N)=O)=C2/Nc3ccccc3S2)n1 [Compound 24A]	rule not met
NC(=O)/C(=C1\Nc2ccc(C(=O)N3CCNCC3)cc2N1)c1nccc(C(F)(F)F)n1 [Compound 60A]	rule met
CN(C)CC(=O)Nc1ccc2c(c1)S/C(=C(/C(N)=O)c1nccc(C(F)(F)F)n1)N2 [Compound 74A]	rule not met

* * *

Protein target, amino acids: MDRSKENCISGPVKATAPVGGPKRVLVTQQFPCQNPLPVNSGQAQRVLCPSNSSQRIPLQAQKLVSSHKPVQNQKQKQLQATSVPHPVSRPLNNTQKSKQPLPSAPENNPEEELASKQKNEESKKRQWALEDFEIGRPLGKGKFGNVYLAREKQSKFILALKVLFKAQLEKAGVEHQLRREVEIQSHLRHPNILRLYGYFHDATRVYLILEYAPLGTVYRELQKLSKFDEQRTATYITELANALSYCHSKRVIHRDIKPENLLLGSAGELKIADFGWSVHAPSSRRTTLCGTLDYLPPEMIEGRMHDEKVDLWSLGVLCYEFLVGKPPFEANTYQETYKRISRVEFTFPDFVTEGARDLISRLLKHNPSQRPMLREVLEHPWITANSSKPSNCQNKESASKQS
pIC50: −log10 of the molar value.
Where pIC50 equals or exceeds 8, the correct label is satisfied; where it does not, the label is not satisfied.

NC(=O)/C(=C1\Nc2ccc(Oc3cccnc3)cc2S1)c1nccc(C(F)(F)F)n1 [Compound 118A]	not satisfied
COC(=O)c1cc(C)nc(/C(C(N)=O)=C2/Nc3ccccc3S2)n1 [Compound 23A]	not satisfied
NC(=O)/C(=C1\Nc2ccc(CN3CCOCC3)cc2S1)c1nccc(C(F)(F)F)n1 [Compound 91A]	satisfied
CN1CCN(CCCOc2ccc3c(c2)S/C(=C(/C(N)=O)c2nccc(C(F)(F)F)n2)N3)CC1 [Compound 115A]	not satisfied
Cc1cc2c(cc1C)NC(=C(C(N)=O)c1ncc(C(=O)NCCCN3CCOCC3)c(C(F)(F)F)n1)N2 [Compound 133A]	not satisfied
NCCCNC(=O)c1ccc2c(c1)N/C(=C(/C(N)=O)c1nccc(C(F)(F)F)n1)N2 [Compound 64A]	not satisfied
NC(=O)/C(=C1\Nc2ccc(C(=O)NCCN3CCOCC3)cc2N1)c1nccc(C(F)(F)F)n1 [Compound 53A]	satisfied
NCC(=O)Nc1ccc2c(c1)SC(=C(C(N)=O)c1nccc(C(F)(F)F)n1)N2 (single isomer, unassigned) [Compound 76A]	not satisfied
NC(=O)/C(=C1\Nc2ccc(CCn3ccnc3)cc2N1)c1nccc(C(F)(F)F)n1 [Compound 96A]	satisfied

* * *

Heads up, these compounds all have IC50 values measured for UniProtKB O14965.
parameter: IC50

NC(=O)/C(=C1\Nc2ccc(Cn3ccnc3)cc2S1)c1nccc(C(F)(F)F)n1 [Compound 89A]	5 nM
NC(=O)/C(=C1\Nc2ccc(C(=O)N3CC[C@@H](N)C3)cc2S1)c1nccc(C(F)(F)F)n1 [Compound 69A]	20 nM
NC(=O)/C(=C1\Nc2ccccc2S1)c1ncc(C(=O)NCCN2CCOCC2)c(C(F)(F)F)n1 [Compound 134A]	50 nM
COC(=O)c1cnc(C(C(N)=O)=C2Nc3ccccc3N2)nc1C(F)(F)F	4 nM

* * *

- studySystem: VEGFR2 kinase (Homo sapiens, UniProt P35968)
- Sequence (P35968 20-1356): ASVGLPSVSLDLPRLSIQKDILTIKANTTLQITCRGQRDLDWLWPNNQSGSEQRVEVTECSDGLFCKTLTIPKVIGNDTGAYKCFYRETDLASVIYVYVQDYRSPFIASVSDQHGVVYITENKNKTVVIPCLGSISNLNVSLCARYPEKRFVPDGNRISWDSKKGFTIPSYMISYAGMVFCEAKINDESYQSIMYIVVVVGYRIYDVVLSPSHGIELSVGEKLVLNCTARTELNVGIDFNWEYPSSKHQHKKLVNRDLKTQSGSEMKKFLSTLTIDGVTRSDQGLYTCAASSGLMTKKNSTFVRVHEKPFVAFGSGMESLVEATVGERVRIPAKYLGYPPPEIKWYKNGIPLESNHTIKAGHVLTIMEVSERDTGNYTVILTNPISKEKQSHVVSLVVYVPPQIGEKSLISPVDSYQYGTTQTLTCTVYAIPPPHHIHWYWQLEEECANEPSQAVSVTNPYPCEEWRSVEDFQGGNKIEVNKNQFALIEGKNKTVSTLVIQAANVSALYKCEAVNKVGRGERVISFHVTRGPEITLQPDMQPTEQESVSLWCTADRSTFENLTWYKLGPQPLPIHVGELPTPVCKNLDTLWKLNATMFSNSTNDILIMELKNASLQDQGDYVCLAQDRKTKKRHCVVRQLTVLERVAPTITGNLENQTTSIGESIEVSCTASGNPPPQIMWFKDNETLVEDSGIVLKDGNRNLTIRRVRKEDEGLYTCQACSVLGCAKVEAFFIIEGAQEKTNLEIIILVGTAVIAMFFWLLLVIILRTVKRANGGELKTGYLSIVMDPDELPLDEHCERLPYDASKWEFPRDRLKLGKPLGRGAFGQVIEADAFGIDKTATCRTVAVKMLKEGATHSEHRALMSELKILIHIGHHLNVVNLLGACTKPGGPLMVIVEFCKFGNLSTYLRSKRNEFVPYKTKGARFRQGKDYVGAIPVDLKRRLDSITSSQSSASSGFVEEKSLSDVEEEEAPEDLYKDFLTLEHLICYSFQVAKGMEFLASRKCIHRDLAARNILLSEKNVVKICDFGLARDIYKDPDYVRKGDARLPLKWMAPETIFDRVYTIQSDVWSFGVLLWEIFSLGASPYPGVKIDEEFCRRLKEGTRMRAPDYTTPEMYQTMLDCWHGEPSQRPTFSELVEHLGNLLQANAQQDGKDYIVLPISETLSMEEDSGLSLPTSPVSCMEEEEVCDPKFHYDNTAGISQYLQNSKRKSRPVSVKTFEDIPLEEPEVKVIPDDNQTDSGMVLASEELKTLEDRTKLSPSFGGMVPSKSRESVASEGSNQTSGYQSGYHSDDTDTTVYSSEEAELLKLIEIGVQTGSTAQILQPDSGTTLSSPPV
pIC50: −log10 of the molar value.
Where pIC50 equals or exceeds 8, the correct label is met; where it does not, the label is not met.

NC(=O)/C(=C1\Nc2ccc(C(=O)NCCCn3ccnc3)cc2S1)c1nccc(C(F)(F)F)n1 [Compound 46A]	not met
CN1CCN(c2ccc3c(c2)S/C(=C(/C(N)=O)c2nccc(C(F)(F)F)n2)N3)CC1 [Compound 120A]	met
CCN(CCCN1CCOCC1)C(=O)c1ccc2c(c1)S/C(=C(/C(N)=O)c1nccc(C(F)(F)F)n1)N2 [Compound 42A]	not met
Cc1cc(C(F)(F)F)nc(C(C(N)=O)=C2Nc3ccccc3N2)n1 [Compound 138A]	not met
CCN(CC)CC(=O)Nc1ccc2c(c1)N/C(=C(/C(N)=O)c1nccc(C(F)(F)F)n1)N2 [Compound 75A]	not met
NC(=O)/C(=C1\Nc2ccc(N3CCC(N)C3)cc2S1)c1nccc(C(F)(F)F)n1 (stereo not drawn) [Compound 123A]	not met
CN1CCN(C(=O)c2cnc(C(C(N)=O)=C3Nc4ccccc4S3)nc2C(F)(F)F)CC1 (single isomer, unassigned) [Compound 130A]	not met
CCN1CCN(CCCNC(=O)c2ccc3c(c2)N/C(=C(/C(N)=O)c2nccc(C(F)(F)F)n2)N3)CC1 [Compound 55A]	not met
NC(=O)/C(=C1\Nc2ccc(Oc3cccnc3)cc2S1)c1nccc(C(F)(F)F)n1 [Compound 118A]	not met
NC(=O)/C(=C1\Nc2ccc(C(=O)N3CCC(N)CC3)cc2S1)c1nccc(C(F)(F)F)n1 [Compound 67A]	met
NC(=O)/C(=C1\Nc2ccc(C(=O)NCCn3ccnc3)cc2S1)c1nccc(C(F)(F)F)n1 [Compound 47A]	not met
CN1CCCC[C@@H]1C(=O)Nc1ccc2c(c1)N/C(=C(/C(N)=O)c1nccc(C(F)(F)F)n1)N2 [Compound 143A]	not met
CN1CCC(C(=O)Nc2ccc3c(c2)N/C(=C(/C(N)=O)c2nccc(C(F)(F)F)n2)N3)CC1 [Compound 140A]	not met
NC(=O)/C(=C1\Nc2ccc(S(=O)(=O)NCCN3CCOCC3)cc2S1)c1nccc(C(F)(F)F)n1 [Compound 128A]	not met
NC(=O)/C(=C1\Nc2ccc(S(=O)(=O)N3CCNCC3)cc2S1)c1nccc(C(F)(F)F)n1 [Compound 129A]	not met
NC(=O)/C(=C1\Nc2ccccc2S1)c1ncc(C(=O)NCCN2CCOCC2)c(C(F)(F)F)n1 [Compound 134A]	not met
NC(=O)/C(=C1\Nc2ccccc2S1)c1nccc(-c2ccccc2)n1 [Compound 20A]	not met
NC(=O)/C(=C1\Nc2ccccc2S1)c1ncc(C(=O)NCCCN2CCOCC2)c(C(F)(F)F)n1 [Compound 131A]	not met
COc1ccnc(C(C(N)=O)=C2Nc3ccccc3N2)n1 [Compound 17A]	met
NC(=O)/C(=C1\Nc2ccc(CCn3ccnc3)cc2S1)c1nccc(C(F)(F)F)n1 [Compound 95A]	not met
NC(=O)/C(=C1\Nc2ccc(-c3cccnc3)cc2N1)c1nccc(C(F)(F)F)n1 [Compound 107A]	not met
NC(=O)/C(=C1\Nc2ccc(C(=O)NC3CCNCC3)cc2N1)c1nccc(C(F)(F)F)n1 [Compound 70A]	met

* * *

pIC50: −log10 of the molar value.
Heads up, these compounds all have pIC50 values measured for UniProtKB O14965.
parameter: pIC50

NC(=O)/C(=C1\Nc2ccc(Cn3ccnc3)cc2N1)c1nccc(C(F)(F)F)n1 [Compound 90A]	8.40
NC(=O)/C(=C1\Nc2ccc(C(=O)NC3CCNCC3)cc2N1)c1nccc(C(F)(F)F)n1 [Compound 70A]	7.22
CN(C)CCCNC(=O)c1ccc2c(c1)N/C(=C(/C(N)=O)c1nccc(C(F)(F)F)n1)N2 [Compound 62A]	7.15
CCN(CCCn1ccnc1)C(=O)c1ccc2c(c1)S/C(=C(/C(N)=O)c1nccc(C(F)(F)F)n1)N2 [Compound 49A]	8.52

* * *

Heads up, these molecules all have IC50 values measured for Aurora A kinase (Homo sapiens, UniProt O14965).
parameter: IC50 (nM)

CC(C)(C)c1cc(C(F)(F)F)nc(C(C(N)=O)=C2Nc3ccccc3S2)n1 (single isomer, unassigned)	7
NC(=O)/C(=C1\Nc2cccc(C(=O)NCCCN3CCOCC3)c2S1)c1nccc(C(F)(F)F)n1 [Compound 52A]	60
CN1CCN(S(=O)(=O)c2ccc3c(c2)S/C(=C(/C(N)=O)c2nccc(C(F)(F)F)n2)N3)CC1 [Compound 126A]	20
NC(=O)C(=C1Nc2ccccc2N1)c1ncc(C(=O)NCCCN2CCOCC2)c(C(F)(F)F)n1 [Compound 132A]	60

* * *

- studySystem: Aurora A kinase (Homo sapiens, UniProt O14965)
- Construct: purchased Upstate Biotech
- Sequence (O14965 1-403): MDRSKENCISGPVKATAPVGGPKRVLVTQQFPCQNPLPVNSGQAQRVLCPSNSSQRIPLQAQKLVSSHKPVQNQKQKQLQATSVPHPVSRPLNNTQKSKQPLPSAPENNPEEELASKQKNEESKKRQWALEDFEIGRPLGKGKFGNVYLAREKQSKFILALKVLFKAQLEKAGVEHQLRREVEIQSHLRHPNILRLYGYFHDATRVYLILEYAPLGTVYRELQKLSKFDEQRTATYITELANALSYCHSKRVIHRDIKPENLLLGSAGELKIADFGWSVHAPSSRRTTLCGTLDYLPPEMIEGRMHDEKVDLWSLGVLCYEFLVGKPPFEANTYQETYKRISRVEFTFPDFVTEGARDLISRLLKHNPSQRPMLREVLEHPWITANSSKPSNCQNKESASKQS
- experimentSummary: Aurora A kinase assay (IMAP fluorescence polarization)
- Type: biochemical
- conditionSummary: 10 μM ATP; rounded to 1 significant figure; read-out: Aur-A IC50
Quick list: IC50 per entry.
parameter: IC50 (nM)

NC(=O)C(=C1Nc2ccccc2N1)c1ncc(C(=O)NCCN2CCOCC2)c(C(F)(F)F)n1 [Compound 135A]	30
NC(=O)/C(=C1\Nc2ccc(CCN3CCOCC3)cc2S1)c1nccc(C(F)(F)F)n1 [Compound 101A]	7
NC(=O)/C(=C1\Nc2ccccc2S1)c1nc(NCCN2CCOCC2)cc(C(F)(F)F)n1 [Compound 137A]	80
NC(=O)/C(=C1\Nc2ccc(C(=O)N3CCC(N)CC3)cc2N1)c1nccc(C(F)(F)F)n1 [Compound 66A]	20
